B1: STK38L (parent)
chain: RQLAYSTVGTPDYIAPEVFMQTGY

variants of: B1; experiment: protein stability index of a GFP-peptide fusion (GPS, HEK-293T) (PSI 1-6); higher = more stable; conditions: c terminus: a fixed tail appended;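 further: lentivirally expressed fusions sorted by FACS into six bins by GFP to DsRed ratio, PSI derived from sequencing read proportions per bin multiplied by bin number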
Where protein stability index equals or exceeds 2, the correct label is criterion met; where it does not, the label is criterion not met.

Please check the record Y13E and state if its protein stability index is at or above 2.
criterion met

Please check the record P11E and state if its protein stability index is at or above 2.
criterion met

Please check the record D12M and state if its protein stability index is at or above 2.
criterion met

Please check the record E17Y and state if its protein stability index is at or above 2.
criterion not met

Please check the record Q2L and state if its protein stability index is at or above 2.
criterion not met

The measured values listed here are drawn from the supplement of paper PMC10567573.
